B1: GFOD1 (parent)
chain: EEAEELAKEMSVPFYTSRIDEVLL

# Variants of: B1
# Assay explanation: protein stability index of a GFP-peptide fusion (GPS, HEK-293T) (PSI 1-6); higher = more stable;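 also: lentivirally expressed fusions sorted by FACS into six bins by GFP to DsRed ratio, PSI derived from sequencing read proportions per bin multiplied by bin number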
# Condition notes: c terminus: a fixed tail appended
Below: a set of entries, each annotated with reported protein stability index.

Seq	protein stability index
EEAEELAVEMSVPFYTSRIDEVLL	2.85
EEATELAKEMSVPFYTSRIDEVLL	3.86
EEAEELAKEMSVPFYTSRLDEVLL	3.69
KEAEELAKEMSVPFYTSRIDEVLL	4.03
EEAEELAKEMSVPFYTSRMDEVLL	3.2
EEAEEWAKEMSVPFYTSRIDEVLL	3.75
